These entries and their values trace back to paper PMC11066877.

Assay: microPET/CT imaging, ROI analysis, BxPC-3 tumor models
Assay type: in vivo, mice
Settings: nude (thymus-free), mouse, intravenous, 3 MBq, 1 h after tracer injection
OBSERVATION_TYPE: tissue uptake at 1 h (%ID/g)
Use %ID/g as the unit, but write only the number.

Prompt: What measured tissue uptake at 1 h goes with CCCCCC(=O)N[C@H]1CSCc2cc(CSCCNC(=O)[C@H](CCCCN)NC(=O)[C@@H](NC(=O)[C@H](CCSC)NC(=O)CN3CCN(CC(=O)O)CCN(CC(=O)O)CCN(CC(=O)O)CC3)C(C)C)cc(c2)CSC[C@@H](C(=O)O)NC(=O)[C@H](Cc2ccccc2)NC(=O)[C@H](CCC(N)=O)NC(=O)[C@H]([C@@H](C)O)NC(=O)[C@@H]2CCCN2C(=O)[C@@H]2CCCN2C1=O [[^68Ga]Ga-DOTA-FD1, metal not drawn] ?
Response: 0.96

###

For each of the molecules below, state its tissue uptake at 4 h.
Test: microPET/CT imaging, ROI analysis, BxPC-3 tumor models
Type: in vivo, mice
Settings: nude (thymus-free), mouse, intravenous, 3 MBq, 4 h p.i.
Use %ID/g as the unit, but write only the number.

Prompt: What measured tissue uptake at 4 h goes with CCCCCC(=O)N[C@H]1CSCc2cc(CSCCNC(=O)[C@H](CCCCNC(=O)CCCc3ccc(I)cc3)NC(=O)[C@@H](NC(=O)[C@H](CCSC)NC(=O)CN3CCN(CC(=O)O)CCN(CC(=O)O)CCN(CC(=O)O)CC3)C(C)C)cc(c2)CSC[C@@H](C(=O)O)NC(=O)[C@H](Cc2ccccc2)NC(=O)[C@H](CCC(N)=O)NC(=O)[C@H]([C@@H](C)O)NC(=O)[C@@H]2CCCN2C(=O)[C@@H]2CCCN2C1=O [[^68Ga]Ga-DOTA-FD3, metal not drawn] ?
Response: 7.07

Prompt: How about CCCCCC(=O)N[C@H]1CSCc2cc(CSCCNC(=O)[C@H](CCCCNC(=O)CCCc3ccc(I)cc3)NC(=O)CN3CCN(CC(=O)O)CCN(CC(=O)O)CCN(CC(=O)O)CC3)cc(c2)CSC[C@@H](C(=O)O)NC(=O)[C@H](Cc2ccccc2)NC(=O)[C@H](CCC(N)=O)NC(=O)[C@H]([C@@H](C)O)NC(=O)[C@@H]2CCCN2C(=O)[C@@H]2CCCN2C1=O [[^68Ga]Ga-DOTA-FD2, metal not drawn] ?
Response: 7.67

###

Assay: Ex vivo biodistribution of 177Lu-labeled radioligands in tumor-free nude mice
Conditions: mouse, blood, intravenous, 1.11 MBq, total radioactivity, 24 h p.i., read-out: accumulation in the blood pool (biodistribution)
OBSERVATION_TYPE: tissue uptake at 24 h (%ID/g)
Use %ID/g as the unit, but write only the number.

Prompt: What measured tissue uptake at 24 h goes with CCCCCC(=O)N[C@H]1CSCc2cc(CSCCNC(=O)[C@H](CCCCNC(=O)CCCc3ccc(I)cc3)NC(=O)CN3CCN(CC(=O)O)CCN(CC(=O)O)CCN(CC(=O)O)CC3)cc(c2)CSC[C@@H](C(=O)O)NC(=O)[C@H](Cc2ccccc2)NC(=O)[C@H](CCC(N)=O)NC(=O)[C@H]([C@@H](C)O)NC(=O)[C@@H]2CCCN2C(=O)[C@@H]2CCCN2C1=O [[^177Lu]Lu-DOTA-FD2, metal not drawn] ?
Response: 31.8

Prompt: How about CCCCCC(=O)N[C@H]1CSCc2cc(CSCCNC(=O)[C@H](CCCCNC(=O)CCCc3ccc(I)cc3)NC(=O)[C@@H](NC(=O)[C@H](CCSC)NC(=O)CN3CCN(CC(=O)O)CCN(CC(=O)O)CCN(CC(=O)O)CC3)C(C)C)cc(c2)CSC[C@@H](C(=O)O)NC(=O)[C@H](Cc2ccccc2)NC(=O)[C@H](CCC(N)=O)NC(=O)[C@H]([C@@H](C)O)NC(=O)[C@@H]2CCCN2C(=O)[C@@H]2CCCN2C1=O [[^177Lu]Lu-DOTA-FD3, metal not drawn] ?
Response: 28.1

###

Test: Ex vivo biodistribution of [177Lu]Lu-DOTA-FD3 in HT1080-FAP tumor models
Set-up: species or system mice
Details: nude (thymus-free), mouse, blood, 1.11 MBq, total radioactivity, 90 h p.i., read-out: blood pool retention (biodistribution)
OBSERVATION_TYPE: tissue uptake at 90 h (%ID/g)
Use %ID/g as the unit, but write only the number.

Prompt: What measured tissue uptake at 90 h goes with CCCCCC(=O)N[C@H]1CSCc2cc(CSCCNC(=O)[C@H](CCCCNC(=O)CCCc3ccc(I)cc3)NC(=O)[C@@H](NC(=O)[C@H](CCSC)NC(=O)CN3CCN(CC(=O)O)CCN(CC(=O)O)CCN(CC(=O)O)CC3)C(C)C)cc(c2)CSC[C@@H](C(=O)O)NC(=O)[C@H](Cc2ccccc2)NC(=O)[C@H](CCC(N)=O)NC(=O)[C@H]([C@@H](C)O)NC(=O)[C@@H]2CCCN2C(=O)[C@@H]2CCCN2C1=O [[^177Lu]Lu-DOTA-FD3, metal not drawn] ?
Response: 11.5
